- experimental.details: log P determination by HPLC on reversed-phase column (EEC directive 79/831 Annex V.A8)
- Assay type: physicochemical
- experimental.setup: pH 2.3; HPLC reversed-phase C18, 43° C.
assay.metric: logP

• Cc1ccc(-c2ccccc2NC(=O)c2cn(C)nc2I)cc1F [Compound 7] = 3.18
• CC(CC1CC1)c1ccccc1NC(=O)c1cn(C)nc1I (stereo not shown) [Compound 15] = 3.08
• Cn1cc(C(=O)Nc2ccccc2-c2ccc(Cl)cc2)c(I)n1 [Compound 14] = 3.08
• CC(C)=C(C)c1ccccc1NC(=O)c1cn(C)nc1I [Compound 27] = 3.40
